Test system: NCI-H460 lung
Experiment: NCI tumour cell line growth inhibition, 48 h
property-label: TGI

INSERT INTO assay_data (molecule, val) VALUES
  ('O=C(CC/C=C(/CS(=O)(=O)c1ccccc1)S(=O)(=O)c1ccccc1)c1ccccc1', '> 100 µM'),
  ('O=c1/c(=C\c2ccccc2)sc2n1C(c1ccccc1)C1(O)CCCCC1N=2 (centres undefined)', '> 100 µM'),
  ('O=[N+]([O-])c1ccc(N/N=C/c2c(O)ccc3ccccc23)nc1', '> 100 µM'),
  ('CCCCCC(=O)N[C@@H](c1ccccc1)C(O)C(=O)OC1C[C@@]2(O)C(OC(=O)c3ccccc3)C3[C@](C)(C(=O)[C@H](O)C(=C1C)C2(C)C)C(OC1OCC(O)C(O)C1O)C[C@H]1OC[C@@]31OC(C)=O (some centres undefined)', '> 100 µM'),
  ('O=c1cc2ccccc2nn1Cc1ccccc1Cl', '> 100 µM'),
  ('COc1cc(/C=C\[N+](=O)[O-])ccc1OCc1ccccc1', '15.9 µM'),
  ('CC(=O)N1CCc2c([nH]c3ccc(Br)cc23)C1c1ccccc1 (centres undefined)', '> 10 µM'),
  ('COc1cc2c3c(n(CCCNCCN)c(=O)c2cc1OC)-c1cc2c(cc1C3=O)OCO2', '> 49.9 µM');

Now for the molecule whose TGI we want.
Form field: reported TGI of O=C1Sc2ccc(Br)cc2C(=O)Sc2ccccc21
34 µM

Where these numbers come from: PubChem BioAssay (NCI)
